compounds and their reported MIC
Test system: Streptococcus pneumoniae
Assay: Antimicrobial activity against Streptococcus pneumoniae isolate 3791 by agar dilution method
Assay type: functional
Return type: number; implicit unit µg/mL.

The following compounds have reported results that may help.
// returns reported MIC for input C[C@@H](O)[C@H]1C(=O)N2C(C(=O)O)=C(SCCNC=N)C[C@H]12 [IMIPENEM ANHYDROUS] 0.125

// returns reported MIC for input CC1(C)S[C@@H]2[C@H](NC(=O)Cc3ccccc3)C(=O)N2[C@H]1C(=O)O 2

// returns reported MIC for input CO/N=C(\C(=O)N[C@@H]1C(=O)N2C(C(=O)O)=C(CSc3nc(=O)c(O)nn3C)CS[C@H]12)c1csc(N)n1 1

// returns reported MIC for input C=CC1=C(C(=O)O)N2C(=O)[C@@H](NC(=O)/C(=N\O)c3csc(N)n3)[C@H]2SC1 8

More entries:
// returns reported MIC for input COCC1=C(C(=O)O)N2C(=O)[C@@H](NC(=O)/C(=N\OC)c3csc(N)n3)[C@H]2SC1 4

// returns reported MIC for input CC1(C)S[C@@H]2[C@H](NC(=O)[C@H](N)c3ccc(O)cc3)C(=O)N2[C@H]1C(=O)O 2

// returns reported MIC for input CC[C@H]1OC(=O)[C@H](C)[C@@H](O[C@H]2C[C@@](C)(OC)[C@@H](O)[C@H](C)O2)[C@H](C)[C@@H](O[C@@H]2O[C@H](C)C[C@H](N(C)C)[C@H]2O)[C@](C)(OC)C[C@@H](C)C(=O)[C@H](C)[C@@H](O)[C@]1(C)O 32

// returns reported MIC for input C[C@@H](O)[C@H]1C(=O)N2C(C(=O)O)=C(S[C@H]3CC[S@@+]([O-])C3)S[C@H]12 0.25

// returns reported MIC for input CO/N=C(\C(=O)N[C@@H]1C(=O)N2C(C(=O)O)=C(COC(N)=O)CS[C@H]12)c1ccco1 8

// returns reported MIC for input O=C(O)c1cn(C2CC2)c2cc(N3CCNCC3)c(F)cc2c1=O 1

// returns reported MIC for input C[C@@H](O)[C@H]1C(=O)N2C(C(=O)O)=C(S[C@@H]3CN[C@H](C(=O)N(C)C)C3)[C@H](C)[C@H]12 0.25

// returns reported MIC for input COc1c(N2CCNC(C)C2)c(F)cc2c(=O)c(C(=O)O)cn(C3CC3)c12 (stereo not drawn) 0.5

* * *

Tested on: Streptococcus pneumoniae
Experiment: Antimicrobial activity against Streptococcus pneumoniae isolate 1397 by agar dilution method
Assay type: functional
molecules and their reported log10 MIC
log10 MIC, µg/mL

// returns reported log10 MIC for input COc1c(N2CCNC(C)C2)c(F)cc2c(=O)c(C(=O)O)cn(C3CC3)c12 (stereo not drawn) [GATIFLOXACIN] -0.30

// returns reported log10 MIC for input C=CC1=C(C(=O)O)N2C(=O)[C@@H](NC(=O)/C(=N\O)c3csc(N)n3)[C@H]2SC1 [CEFDINIR] 0.60

// returns reported log10 MIC for input CO/N=C(\C(=O)N[C@@H]1C(=O)N2C(C(=O)O)=C(COC(N)=O)CS[C@H]12)c1ccco1 [CEFUROXIME] 0.90

// returns reported log10 MIC for input CC[C@H]1OC(=O)[C@H](C)[C@@H](O[C@H]2C[C@@](C)(OC)[C@@H](O)[C@H](C)O2)[C@H](C)[C@@H](O[C@@H]2O[C@H](C)C[C@H](N(C)C)[C@H]2O)[C@](C)(OC)C[C@@H](C)C(=O)[C@H](C)[C@@H](O)[C@]1(C)O [CLARITHROMYCIN] 1.81

// returns reported log10 MIC for input CC1(C)S[C@@H]2[C@H](NC(=O)Cc3ccccc3)C(=O)N2[C@H]1C(=O)O [PENICILLIN G] 0.30

// returns reported log10 MIC for input COCC1=C(C(=O)O)N2C(=O)[C@@H](NC(=O)/C(=N\OC)c3csc(N)n3)[C@H]2SC1 [CEFPODOXIME] 0.60

// returns reported log10 MIC for input CC1(C)S[C@@H]2[C@H](NC(=O)[C@H](N)c3ccc(O)cc3)C(=O)N2[C@H]1C(=O)O [AMOXICILLIN] 0.60
